Where do these numbers come from? They come from ChEMBL document CHEMBL2311357.

In this section we review reported ΔTm values for a set of compounds.
test system: Salmonidae; assay: Binding affinity to salmon sperm DNA in 10 mM phosphate buffer assessed as change in melting temperature at 15 uM by thermal denaturation assay
reported property: ΔTm (°C)

- N=C(N)Nc1ccc(Oc2ccc(NC(=O)CCCCCCCCCCN)cc2)cc1: 2
- N=C(N)Nc1ccc(Oc2ccc(N)cc2)cc1: 2
- N=C(N)Nc1ccc(Cc2ccc(NC(=N)N)cc2)cc1: 8.1
- N=C(N)Nc1ccc(Nc2ccc(N)cc2)cc1: 2.1
- N=C(N)Nc1ccc(Cc2ccc(NC(=O)CCCCN)cc2)cc1: 4
- N=C(N)Nc1ccc(Cc2ccc(NC(=O)CCCCCCCCCCCN)cc2)cc1: 0.1

* * *

assay: Selectivity index, ratio of IC50 for rat L6 cells to IC50 for Plasmodium falciparum NF54; type: toxicity, cell-based; settings: L6 cells versus Plasmodium falciparum NF54, read-out: Ratio IC50
Returns: string. Value is YES if measured selectivity ratio is below 80, and NO if it is greater than or equal to it.

• N=C(N)Nc1ccc(Cc2ccc(NC(=O)CCCCCCCCCCCN)cc2)cc1 = YES
• N=C(N)Nc1ccc(Cc2ccc(NC(=O)CCCCN)cc2)cc1 = NO
• N=C(N)Nc1ccc(Oc2ccc(NC(=O)CCCN)cc2)cc1 = NO
• N=C(N)Nc1ccc(Cc2ccc(NC(=O)CCCCCCCCCCN)cc2)cc1 = YES
• N=C(N)Nc1ccc(CCc2ccc(NC(=O)CCCN)cc2)cc1 = NO
• N=C(N)Nc1ccc(Nc2ccc(NC(=O)CCCN)cc2)cc1 = NO
• N=C(N)Nc1ccc(CCc2ccc(NC(=O)CCCCCCCCCCN)cc2)cc1 = YES

* * *

system: Plasmodium falciparum; test: Antimalarial activity against erythrocytic stage of Plasmodium falciparum NF54 assessed as incorporation of [3H]hypoxanthine after 48 hrs by scintillation counting analysis; assay type: functional, organism-based
pIC50: −log10 of the molar value.
A collection of compounds and their measured pIC50
reported property: pIC50

• N=C(N)Nc1ccc(Oc2ccc(NC(=O)CCCN)cc2)cc1 = 6.06
• N=C(N)c1ccc(OCCCCCOc2ccc(C(=N)N)cc2)cc1 = 7.57
• N=C(N)Nc1ccc(Oc2ccc(NC(=O)CCCCCCCCCCN)cc2)cc1 = 5.85
• N=C(N)Nc1ccc(Nc2ccc(NC(=O)CCCN)cc2)cc1 = 5.92
• N=C(N)Nc1ccc(CCc2ccc(NC(=O)CCCCCCCCCCN)cc2)cc1 = 5.24
• N=C(N)Nc1ccc(Cc2ccc(NC(=O)CCCCCCCCCCN)cc2)cc1 = 5.69
• N=C(N)Nc1ccc(Cc2ccc(NC(=O)CCCN)cc2)cc1 = 5.58
• N=C(N)Nc1ccc(Oc2ccc(NC(=O)CCCCCCCN)cc2)cc1 = 6.83
• N=C(N)Nc1ccc(CCc2ccc(NC(=O)CCCN)cc2)cc1 = 5.94

* * *

Entries and their ΔTm
tested on: Salmonidae; assay: Binding affinity to salmon sperm DNA in 10 mM phosphate buffer assessed as change in melting temperature at 15 uM by thermal denaturation assay
reported property: ΔTm (°C)

* N=C(N)Nc1ccc(Oc2ccc(NC(=O)CCCCCCCCCCCN)cc2)cc1 | 2
* N=C(N)Nc1ccc(CCc2ccc(NC(=O)CCCCCCCN)cc2)cc1 | 2
* N=C(N)Nc1ccc(Nc2ccc(NC(=O)CCCCCCCN)cc2)cc1 | 2
